Values from patent US20240084042A1

- test.system: T1, cynomolgus monkey KLK5 (cynomolgus monkey, UniProt Q9Y337 67-293 (human entry))
- T1 construct: also called cyno KLK5
- T1 chain: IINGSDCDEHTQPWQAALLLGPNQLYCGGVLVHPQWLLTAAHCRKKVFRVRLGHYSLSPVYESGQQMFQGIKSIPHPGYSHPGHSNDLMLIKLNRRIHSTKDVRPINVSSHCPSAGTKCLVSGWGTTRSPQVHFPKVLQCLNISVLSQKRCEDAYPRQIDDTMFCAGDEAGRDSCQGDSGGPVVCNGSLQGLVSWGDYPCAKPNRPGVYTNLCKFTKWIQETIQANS
- assay.explanation: SPR, one-armed monovalent antibody
kon: recorded values
State the answer as a number, implicitly in M⁻¹ s⁻¹.

Use the examples below as a reference point.
- binder: "OA.hu.9H5.H14L4.G54A.S95Y (antibody, V domains shown, One-armed (OA) monovalent anti-KLK5 antibody with a human IgG1 Fc, with Q38E/Q39K; constant regions and dummy Fc chain not specified) VH: EVQLVESGGGLIQPGGSLRLSCAASGFSLSSYGVSWVRKAPGKGLEYVGFIGSAGFAYYASWAKSRFTISRDNSKNTLYLQMNSLRAEDTAVYYCARDDVGGGKSLDIWGQGTLVTVSS VL: DIQMTQSPSSLSASVGDRVTITCQASQSISSYLSWYQEKPGKAPKLLIYSASTLASGVPSRFSGSGSGTDFTLTISSLQPEDFATYYCHQDYTSYNVDNTFGGGTKVEIK"
  measured.endpoint: "kon"
  observed.measurement: "4.82e+06"
- binder: "OA.hu.9H5.H14L4.G98Q.H89V (antibody, V domains shown, One-armed (OA) monovalent anti-KLK5 antibody with a human IgG1 Fc, with Q38E/Q39K; constant regions and dummy Fc chain not specified) VH: EVQLVESGGGLIQPGGSLRLSCAASGFSLSSYGVSWVRKAPGKGLEYVGFIGSGGFAYYASWAKSRFTISRDNSKNTLYLQMNSLRAEDTAVYYCARDDVQGGKSLDIWGQGTLVTVSS VL: DIQMTQSPSSLSASVGDRVTITCQASQSISSYLSWYQEKPGKAPKLLIYSASTLASGVPSRFSGSGSGTDFTLTISSLQPEDFATYYCVQDYTSSNVDNTFGGGTKVEIK"
  measured.endpoint: "kon"
  observed.measurement: "1.48e+07"
- binder: "OA.hu.9H5.H14L4.G54A.G98Q.H89V.S95Y (antibody, V domains shown, One-armed (OA) monovalent anti-KLK5 antibody with a human IgG1 Fc, with Q38E/Q39K; constant regions and dummy Fc chain not specified) VH: EVQLVESGGGLIQPGGSLRLSCAASGFSLSSYGVSWVRKAPGKGLEYVGFIGSAGFAYYASWAKSRFTISRDNSKNTLYLQMNSLRAEDTAVYYCARDDVQGGKSLDIWGQGTLVTVSS VL: DIQMTQSPSSLSASVGDRVTITCQASQSISSYLSWYQEKPGKAPKLLIYSASTLASGVPSRFSGSGSGTDFTLTISSLQPEDFATYYCVQDYTSYNVDNTFGGGTKVEIK"
  measured.endpoint: "kon"
  observed.measurement: "3.95e+06"
- binder: "OA.hu.9H5.H14L4.G54A.H89V (antibody, V domains shown, One-armed (OA) monovalent anti-KLK5 antibody with a human IgG1 Fc, with Q38E/Q39K; constant regions and dummy Fc chain not specified) VH: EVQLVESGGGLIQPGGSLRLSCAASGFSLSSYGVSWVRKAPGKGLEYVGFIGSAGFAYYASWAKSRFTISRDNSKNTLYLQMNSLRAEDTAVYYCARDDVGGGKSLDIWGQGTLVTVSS VL: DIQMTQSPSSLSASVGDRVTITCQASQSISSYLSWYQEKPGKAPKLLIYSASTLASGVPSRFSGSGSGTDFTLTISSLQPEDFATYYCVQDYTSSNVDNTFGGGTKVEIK"
  measured.endpoint: "kon"
  observed.measurement: "1.24e+07"

Q. GET /values?readout=kon&item= OA.hu.9H5.H14L4.G54A.G98Q.H89V (antibody, V domains shown, One-armed (OA) monovalent anti-KLK5 antibody with a human IgG1 Fc, with Q38E/Q39K; constant regions and dummy Fc chain not specified) VH: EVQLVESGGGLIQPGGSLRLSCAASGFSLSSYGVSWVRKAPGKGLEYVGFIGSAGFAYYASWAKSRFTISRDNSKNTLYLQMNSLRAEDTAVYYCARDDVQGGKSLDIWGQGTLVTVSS VL: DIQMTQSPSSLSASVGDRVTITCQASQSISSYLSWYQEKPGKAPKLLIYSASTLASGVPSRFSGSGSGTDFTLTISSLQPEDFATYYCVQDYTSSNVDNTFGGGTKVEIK
A. 2.19e+07
